target: Factor X (FX), P00742
Sequence (P00742 whole entry, looked up): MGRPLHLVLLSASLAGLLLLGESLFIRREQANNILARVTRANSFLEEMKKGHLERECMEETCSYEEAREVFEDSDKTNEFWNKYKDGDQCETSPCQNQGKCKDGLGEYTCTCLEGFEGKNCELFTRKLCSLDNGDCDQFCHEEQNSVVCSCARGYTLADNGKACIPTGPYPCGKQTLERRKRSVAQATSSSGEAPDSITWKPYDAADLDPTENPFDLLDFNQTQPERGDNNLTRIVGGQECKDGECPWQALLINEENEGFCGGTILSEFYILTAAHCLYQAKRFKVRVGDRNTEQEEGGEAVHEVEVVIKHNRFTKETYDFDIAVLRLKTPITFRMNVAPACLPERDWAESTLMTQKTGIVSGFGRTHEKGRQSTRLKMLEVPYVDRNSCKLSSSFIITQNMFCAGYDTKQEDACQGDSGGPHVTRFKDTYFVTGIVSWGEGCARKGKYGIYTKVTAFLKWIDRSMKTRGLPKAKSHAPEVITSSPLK
measurement.type: kcat/KM for FX activation (Xase: FVIIIa, PC/PS vesicles, Ca2+) (M⁻¹ s⁻¹)
Your answer should be a plain number; it is taken to be in M⁻¹ s⁻¹.

Give the reported kcat/KM for FX activation (Xase: FVIIIa, PC/PS vesicles, Ca2+) for this protein. FIXa-Y155F/K247N/N249S/T343R/R403E/E410N (protein) chain 1: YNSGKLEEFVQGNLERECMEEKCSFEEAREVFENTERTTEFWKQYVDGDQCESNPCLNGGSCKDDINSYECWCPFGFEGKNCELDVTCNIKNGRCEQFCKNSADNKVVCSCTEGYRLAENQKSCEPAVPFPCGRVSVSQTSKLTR chain 2: VVGGEDAKPGQFPWQVVLNGKVDAFCGGSIVNEKWIVTAAHCVETGVKITVVAGEHNIEETEHTEQNRSVIRIIPHHNYNAAINKYNHDIALLELDEPLVLNSYVTPICIADKEYTNIFLKFGSGYVSGWGRVFHKGRSALVLQYLRVPLVDRATCLRSTKFRIYNNMFCAGFHEGGRDSCQGDSGGPHVTEVEGTSFLTGIISWGEECAMKGKYGIYTKVSEYVNWIKNKTKLT
2.9e+08

# credit: patent US20210238260
